# Test system: PC-3 prostate
# experiment notes: NCI-60 one-dose screen, 48 h (100 = growth as untreated, 0 = no growth, -100 = all killed)
# condition context: 10 µM
Compounds without any hit were thinned out: in the full panel of roughly 83,000, 20% have a hit. Calls of active or inactive are those of the source. Rule for the calls: active = growth percent below 10; inactive = the rest.
quantity kind: growth

# count of solved cases: 5
# molecule, growth
rows = [
    ("N#C/C(=C\\N1C(=O)/C(=C/c2cccc([N+](=O)[O-])c2)SC1=S)c1nc2ccccc2s1", "83.5% (inactive)"),
    ("CCCCc1ccc(NC(=O)N(CCCl)N=O)cc1", "94% (inactive)"),
    ("CC(=O)OCC(COC(C)=O)(COC(C)=O)COC(C)=O", "102% (inactive)"),
    ("CCOC(=O)Nc1ccc2c(c1)C(=O)N(CC)c1ccccc1O2", "33.8% (inactive)"),
    ("COc1cccc(C(=O)NNc2nc(N3CCOCC3)nc(N3CCN(C(c4ccccc4)c4ccccc4)CC3)n2)c1", "55.1% (inactive)"),
]

Please look at the following molecule next.
Req: Param item = Nc1cc2c(cc1Cl)-c1ccc(Cl)cc1C2=O ; retrieve measured growth.
Resp: 94.2% (inactive)
